Give measured IC50 for each item. Keep answers brief.
# EXPERIMENT: Cytotoxicity against mouse NIH/3T3 cells after 72 hrs by MTT assay
# Type: cell-based
# SETUP_CONDITIONS: NIH3T3, 72 h
Answers are plain numbers, in µM.

Use these answered entries as a reference point.
COc1c(N2CCN(c3nnc(-c4ccccc4[N+](=O)[O-])s3)C(C)C2)c(F)cc2c(=O)c(C(=O)O)cn(C3CC3)c12 (configuration not stated) = 168
COc1c(N2CCN(c3nnc(-c4ccc([N+](=O)[O-])o4)s3)C(C)C2)c(F)cc2c(=O)c(C(=O)O)cn(C3CC3)c12 (configuration not stated) = 238
COc1c(N2CCN(c3nnc(-c4cccc([N+](=O)[O-])c4)s3)C(C)C2)c(F)cc2c(=O)c(C(=O)O)cn(C3CC3)c12 (configuration not stated) = 161
COc1c(N2CCN(c3nnc(-c4ncc([N+](=O)[O-])n4C)s3)C(C)C2)c(F)cc2c(=O)c(C(=O)O)cn(C3CC3)c12 (configuration not stated) = 246
COc1c(N2CCN(c3nnc(-c4ccc([N+](=O)[O-])cc4)s3)C(C)C2)c(F)cc2c(=O)c(C(=O)O)cn(C3CC3)c12 (configuration not stated) = 223
COc1c(N2CCNC(C)C2)c(F)cc2c(=O)c(C(=O)O)cn(C3CC3)c12 (configuration not stated) [GATIFLOXACIN] = 596

Proceed to the following item.
Which IC50 value belongs to COc1c(N2CCN(c3nnc(-c4ccc([N+](=O)[O-])s4)s3)C(C)C2)c(F)cc2c(=O)c(C(=O)O)cn(C3CC3)c12 (configuration not stated) ?
243
